Data provenance is PubChem BioAssay (NCI).

// reported growth for each item listed
# System: A498 renal
# ASSAY COMMENT: NCI-60 one-dose screen, 48 h (100 = growth as untreated, 0 = no growth, -100 = all killed)
# PARTICULARS: 10 µM unless noted
This is part of a sample that, as a whole, favours compounds with a hit. Of some 83,000 tested, about 20% had one in any assay.
MEASURED QUANTITY: growth (%)

- TEST SMILES: "CCOC(=O)c1ccc2c(c1)[n+](=O)c(C(C)=O)c(C(F)(F)F)n2[O-]"
  ASSAYED TARGET: "A498 renal"
  MEASURED QUANTITY: "growth"
  UNIT SPEC: "%"
  EXPERIMENTAL VALUE: 12.5
- TEST SMILES: "O=c1ccc2c(ccc3ncccc32)o1"
  ASSAYED TARGET: "A498 renal"
  MEASURED QUANTITY: "growth"
  UNIT SPEC: "%"
  EXPERIMENTAL VALUE: 81.8
- TEST SMILES: "CN1CCN(Cc2ccc(NC(=O)c3cncc(C#Cc4c(N)ncc5cc(F)ccc45)c3)cc2C(F)(F)F)CC1"
  ASSAYED TARGET: "A498 renal"
  MEASURED QUANTITY: "growth"
  UNIT SPEC: "%"
  EXPERIMENTAL VALUE: 73.6
- TEST SMILES: "CCCCCCCCNc1ncnc2c1ncn2Cc1nnc2c3ccccc3c(Cl)nn12"
  ASSAYED TARGET: "A498 renal"
  MEASURED QUANTITY: "growth"
  UNIT SPEC: "%"
  EXPERIMENTAL VALUE: 69.8
- TEST SMILES: "CCCCN(CCC#N)C(N)=O"
  ASSAYED TARGET: "A498 renal"
  MEASURED QUANTITY: "growth"
  UNIT SPEC: "%"
  EXPERIMENTAL VALUE: 89.6
- TEST SMILES: "COc1cccc(-c2cc(-c3ccc(Nc4nc(Nc5ccc(Cl)cc5)nc(Nc5ccc(Cl)cc5)n4)cc3)nc(N)c2C#N)c1"
  ASSAYED TARGET: "A498 renal"
  MEASURED QUANTITY: "growth"
  UNIT SPEC: "%"
  EXPERIMENTAL VALUE: 80.5
- TEST SMILES: "Nc1ccc(N)c2c1C(=O)c1cccc([N+](=O)[O-])c1C2=O"
  ASSAYED TARGET: "A498 renal"
  MEASURED QUANTITY: "growth"
  UNIT SPEC: "%"
  EXPERIMENTAL VALUE: -73.8
- TEST SMILES: "C#CCOc1cccc(Nc2ncnc3c(NC(=O)CCl)cccc23)c1"
  ASSAYED TARGET: "A498 renal"
  MEASURED QUANTITY: "growth"
  UNIT SPEC: "%"
  EXPERIMENTAL VALUE: 101
- TEST SMILES: "COc1ccc(CNc2c3ccccc3nc3ccccc23)cc1OC"
  ASSAYED TARGET: "A498 renal"
  MEASURED QUANTITY: "growth"
  UNIT SPEC: "%"
  EXPERIMENTAL VALUE: -12.1
- TEST SMILES: "C=CC(=O)NCc1cccc(Nc2ncc(Br)c(NCCCNC(=O)C3CCC3)n2)c1"
  ASSAYED TARGET: "A498 renal"
  MEASURED QUANTITY: "growth"
  UNIT SPEC: "%"
  EXPERIMENTAL VALUE: -59.5
